- Test system: HCT-116
- protocol.text: Cytotoxicity against human HCT116 cells
- Format: functional, cell-based
# Lookup of reported IC50 keyed by entry
quantity.measured: IC50 (nM)

INSERT INTO assay_data (compound, tested_system, quantity_measured, unit_string, test_result) VALUES
  ('CC[C@]1(O)C[C@H]2CN(CCc3c([nH]c4c(Cl)cccc34)[C@@](C(=O)OC)(c3cc4c(cc3OC)N(C)[C@H]3[C@@](O)(C(=O)OC)[C@H](OC(C)=O)[C@]5(CC)C=CCN6CC[C@]43[C@@H]65)C2)C1', 'HCT-116', 'IC50', 'nM', 220),
  ('CC[C@]1(O)C[C@H]2CN(CCc3c([nH]c4ccccc34)[C@@](C(=O)OC)(c3cc4c(cc3OC)N(C=O)[C@H]3[C@@](O)(C(=O)OC)[C@H](OC(C)=O)[C@]5(CC)C=CCN6CC[C@]43[C@@H]65)C2)C1 [VINCRISTINE]', 'HCT-116', 'IC50', 'nM', 7);
